Counter-ions that a name gives are not always drawn.
Listed compounds paired with reported melting point

Before answering, review these 4 worked examples.
CCCCc1oc2cc(C(=O)OC(C)C)ccc2c1C(=O)c1ccc(/C=C/CN(CCCC)CCCC)cc1 (as salt: hydrochloride) [Example 38] :: 110 to 114 °C
CCCCNCC#Cc1ccc(C(=O)c2c(CCCC)oc3ccc(C(=O)OC(C)C)cc23)cc1 (as salt: hydrochloride) [Example 36] :: 166 to 167 °C
CCCCc1oc2ccc(C(=O)OC(C)C)cc2c1C(=O)c1ccc(/C=C/CN(CCCC)CCCC)cc1 (as salt: oxalate) [Example 39] :: 112 °C
CCCCN(C/C=C/c1ccc(C(=O)c2c(C)oc3ccc(C(=O)OC(C)C)cc23)cc1)CCCC (as salt: hydrochloride) [Example 50] :: 189 to 191 °C

Let us examine a further case.
Prompt: Would you kindly share the measured melting point for CCCCc1oc2ccc(C(=O)OC)cc2c1C(=O)c1ccc(C#CCN2CCCCC2)cc1 (as salt: hydrochloride) [Example 34] ?
Completion: 153 to 154 °C
